Assay: chemical genetic growth profiling, strain panel (AID 1159580);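 also: tested at 20 µM; growth read once vehicle control cultures reached saturation at 30 °C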
Conditions: S. cerevisiae deletion strains, growth OD, locus YLR342W, strain FKS1, stronger effect = lower value
The campaign covered roughly 5,500 compounds. About 2,000 (36%) were called active. Another 18% or so got no clear call; they are omitted. The list shows a part of the results. Where a SMILES comes first, the peptide text is derived from it.
Please note: normalized growth exactly at 1 is f. Only values below 1 get t.

# molecule, class assignment
rows = [
    ("CCCCCCCCCCCC1=C(O)C(=O)C=C(O)C1=O", "t"),
    ("Oc1ccc2c(c1)OCC1(O)Cc3cc(O)c(O)cc3C21 (stereo not given)", "f"),
    ("N#Cc1nn(-c2c(Cl)cc(C(F)(F)F)cc2Cl)c(N)c1S(=O)C(F)(F)F (stereo not given)", "t"),
    ("COC(=O)[C@H](Cc1ccccc1)NC(=O)[C@@H](N)CC(=O)O (H-Asp-Phe-OMe)", "f"),
    ("O=C(O[C@@H]1Cc2c(O)cc(O)cc2O[C@@H]1c1cc(O)c(=O)c2c(O)c(O)cc([C@H]3Oc4cc(O)cc(O)c4C[C@H]3O)c2c1)c1cc(O)c(O)c(O)c1", "t"),
    ("O=C(OC1Cc2c(O)cc(O)cc2OC1c1cc(=O)c(O)c2c(O)c(O)cc(C3Oc4cc(O)cc(O)c4CC3O)c2c1)c1cc(O)c(O)c(O)c1 (stereo not given)", "t"),
]

Now let's try a different one.
Qu. In the record for `C=C(C)[C@H]1COc2cc3oc(=O)ccc3cc2O1` , is normalized growth less than 1?
Ans. t
